Sourced from patent US5665386A

# System: rat cytochrome P450 3A
# study conditions: Table 2; 0.001 wt. % component
Would you mind labelling by % inhibition of cyclosporine metabolism? At or over 70% is Y, under is N.

compound	group
CC(C)=CCCC(C)CCO (centres unmarked)	Y
C=C1CC[C@H]2C[C@@H]1C2(C)C [Pinene-(1S)-(-)-β]	N

* * *

# Tested on: rat cytochrome P450 3A
# study conditions: Table 2; 0.001 wt. % component

compound	target desc	unit tag	% inhibition of cyclosporine metabolism
CC=C(C)C=CC=C(C)C	rat cytochrome P450 3A	%	22
Cc1ccc(C(C)C)cc1O	rat cytochrome P450 3A	%	93
C/C=C/c1ccc(OC)cc1 [Anethole, trans-, 4-Propenylanisole]	rat cytochrome P450 3A	%	53
CC(C)[C@@H]1CC[C@@H](C)CC1=O [Menthone-(-), p-Menthan-3-one]	rat cytochrome P450 3A	%	52
CC(C)=C1CC[C@@H](C)CC1=O [Pulegone-(R)-(+), p-Menth-4(8)-en-3-one]	rat cytochrome P450 3A	%	31
C=CC(=C)CCC=C(C)C	rat cytochrome P450 3A	%	13
C=C1C2CCC(C2)C1(C)C (single isomer, unassigned) [Camphene-(+)]	rat cytochrome P450 3A	%	12.4
CC(C)=CCC/C(C)=C/C=O	rat cytochrome P450 3A	%	54
CC(C)=CCC/C(C)=C/CC/C(C)=C/CO [Farnesol, trans-, trans-, 3,7,11-Trimethyl-2,6,10-dodecatrien-1-ol]	rat cytochrome P450 3A	%	82
O=C(/C=C/c1ccccc1)OCc1ccccc1 [Benzyl Cinnamate, Benzyl 3-phenylpropenoic acid]	rat cytochrome P450 3A	%	-45
CC1=CCC2C(C1)C2(C)C (stereo not drawn)	rat cytochrome P450 3A	%	34
C=C(C)[C@@H]1CC=C(C)CC1 [Limonene-(S)-(-), p-Mentha-1,8-diene]	rat cytochrome P450 3A	%	30

* * *

Overview of reported % inhibition of cyclosporine metabolism across a group of molecules:
# Test system: rat cytochrome P450 3A
# study conditions: Table 2; 0.001 wt. % component

molecule	% inhibition of cyclosporine metabolism [%]
CC1(C)C(=O)[C@]2(C)CC[C@H]1C2 [Fenchone-(1R)-(-)]	38
COC(=O)c1ccccc1N [Methyl Anthranilate, Methyl 2-aminobenzoate]	23
C=C(C)C1CC=C(C)C(O)C1 (single isomer, unassigned) [Carveol-(-), p-Mentha-6,8-dien-2-ol]	60
CC1=CC=C(C(C)C)CC1	28
O=C/C=C/c1ccccc1 [Cinnamic Aldehyde, trans-, 3-Phenylpropenaldehyde]	29.0
C=CCc1ccc(OC)cc1	69.2
CC(=O)OC/C=C(\C)CCC=C(C)C [Geranyl Acetate]	51.5
C=CCc1ccc(O)c(OC)c1	66
C=C(C)[C@@H]1CC=C(C)C(=O)C1 [Carvone-(R)-(-), p-Mentha-6,8-dien-2-one]	69

* * *

# Tested on: rat cytochrome P450 3A
# study conditions: Table 2; 0.001 wt. % component
Recorded measurements of % inhibition of cyclosporine metabolism, one per entry

compound	target desc	unit tag	% inhibition of cyclosporine metabolism
CC1=CCC(C(C)(C)O)CC1 (stereo not shown)	rat cytochrome P450 3A	%	86
C=C(C)[C@H]1CC=C(C)CC1 [Limonene-(R)-(+), p-Mentha-1,8-diene]	rat cytochrome P450 3A	%	20
C=C1CC/C=C(\C)CC[C@@H]2[C@@H]1CC2(C)C [Caryophyllene, trans-(-), β Caryophyllene]	rat cytochrome P450 3A	%	85
CC1=CCC(O)(C(C)C)CC1 (stereo not shown)	rat cytochrome P450 3A	%	80
